B1: RSPH3 (parent)
chain: MTVKPAKAASLARNLAKRRRTYLG

Variants of: B1
Assay: protein stability index of a GFP-peptide fusion (GPS, HEK-293T) (PSI 1-6); higher = more stable;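 further: lentivirally expressed fusions sorted by FACS into six bins by GFP to DsRed ratio, PSI derived from sequencing read proportions per bin multiplied by bin number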
Conditions: c terminus: a fixed tail appended
endpointName: protein stability index
Format: numeric value only, no unit, no commentary.

Below, 2 variants whose answers are already recorded.
MTVKPAKAASLARNLAKRRRTYPG :: 3.42
MTVKPAKAASNARNLAKRRRTYLG :: 3.99

QUERY: Quick one: protein stability index for MTHKPAKAASLARNLAKRRRTYLG ?
RESULT: 3.23

QUERY: Quick one: protein stability index for MTVKPAKAASLARNLAKRRRTYTG ?
RESULT: 4.09

QUERY: Quick one: protein stability index for MTVKPAKADSLARNLAKRRRTYLG ?
RESULT: 2.9

QUERY: Quick one: protein stability index for MTYKPAKAASLARNLAKRRRTYLG ?
RESULT: 2.68

QUERY: Quick one: protein stability index for MTVFPAKAASLARNLAKRRRTYLG ?
RESULT: 2.34

QUERY: Quick one: protein stability index for MTVKQAKAASLARNLAKRRRTYLG ?
RESULT: 2.63

QUERY: Quick one: protein stability index for MTVEPAKAASLARNLAKRRRTYLG ?
RESULT: 2.1

QUERY: Quick one: protein stability index for MTVKPAKAANLARNLAKRRRTYLG ?
RESULT: 2.99

QUERY: Quick one: protein stability index for MTVKPAKAASLARNLAKRRRTMLG ?
RESULT: 2.9
